- Test system: M14 melanoma
- methodSummary: NCI tumour cell line growth inhibition, 48 h; in the data active means GI50 below about 0.43 µM; inactive means the rest
Can you answer with just one of these options? active, inactive

Solved cases below.
| molecule | group |
| --- | --- |
| NCCCC[C@@H]1NC(=O)[C@H]2CCCN2C(=O)[C@H](Cc2ccccc2)NC(=O)[C@H](Cc2ccccc2)CNC1=O | inactive |
| CN(C)CCCn1c2c(c3ccccc3c1=O)C(=O)c1ccccc1-2 | inactive |
| COc1cc[nH]c1/C=C1\C(=O)Nc2ccccc21 | inactive |
| CCOC(=O)c1c(CN2CCN(c3ccccc3)CC2)n(-c2ccccc2)c2cc(Br)c(O)cc12 | inactive |
| CC(C)c1ccc(C(=O)Nc2sc3c(c2C(N)=O)CCC(=O)C3)cc1 | inactive |
| CCN(CC)CCCC(C)Nc1c(C)cnc2cc(Cl)c(C)cc12 (stereo unspecified) | inactive |
| CCS(=O)(=O)c1ccc(OC)c(Nc2ncc(-c3cccc(OC)c3)o2)c1 | inactive |
| CCOC(=O)Sc1ncnc2nc[nH]c12 | active |
| NC(N)=NCCCn1c2c(c3ccccc3c1=O)C(=O)c1ccccc1-2 | inactive |
| COc1ccc(OC)c(/C=C/C(=O)N/N=C/c2ccc(Cl)cc2)c1 | active |

Next, consider the following molecule.
Which outcome was entered for the molecule CCC#CC[C@H]1C/C=C2/C(=O)C=C[C@@H]2C/C=C\CCCC(=O)O1 in this test? inactive

====

- Test system: OVCAR-3 ovarian
- methodSummary: NCI tumour cell line growth inhibition, 48 h
resultType: TGI (µM)
Give the value in µM but do not write µM after it.

// solved cases for TGI follow
| compound | measuredOn | resultType | unitDescriptor | endpointValue |
| --- | --- | --- | --- | --- |
| COc1ccc2c(c1)C=C([N+](=O)[O-])C(C1OC(C)(C)OC1C1COC(C)(C)O1)O2 (centres undefined) | OVCAR-3 ovarian | TGI | µM | 21.8 |
| CCN1C(=O)CNc2ncc(-c3ccc(-c4ncn[nH]4)nc3C)nc21 | OVCAR-3 ovarian | TGI | µM | 4.49 |
| O=C1c2c(Br)sc(Br)c2C(NC(=O)C(F)(F)F)C1O (centres undefined) | OVCAR-3 ovarian | TGI | µM | 43.7 |

Record O=C(Nc1ccc(Cl)cc1)c1cc(-c2ccc(F)cc2)c2sc(=O)[nH]c2n1 : what is its TGI with OVCAR-3 ovarian? 11.4

====

- Test system: UACC-257 melanoma
- methodSummary: NCI tumour cell line growth inhibition, 48 h
resultType: TGI (µM)
Give the value in µM but do not write µM after it.

| molecule | endpointValue |
| --- | --- |
| O=C(/C=C/c1cccc([N+](=O)[O-])c1)N1CCN(CCOC(c2ccccc2)c2ccccc2)CC1 | 89.2 |

Give the measured TGI of Cc1ccc(/C(=C/C=C(C#N)C#N)Sc2ccc(Cl)cc2)cc1 . 22

Now the same for CCCCN=C(N)c1ccc(OCCSCCOc2ccc(C(N)=NCCCC)cc2)cc1 71.8

Now the same for COc1ccc(N2C(=O)C3c4[nH]c5ccc(C)cc5c4C4CCC(C(C)(C)C)CC4C3C2=O)cc1 (stereo not given) 77.8

====

- Test system: 786-0 renal
- methodSummary: NCI tumour cell line growth inhibition, 48 h
resultType: TGI (µM)
Give the value in µM but do not write µM after it.

| compoundStructureString | measuredOn | TGI, µM |
| --- | --- | --- |
| CCSc1nnc(Sc2c3ccccc3nc3ccccc23)s1 | 786-0 renal | 7.54 |

Give the measured TGI of Cc1ccc(/C(=C/C=C(C#N)C#N)Sc2ccc(Cl)cc2)cc1 . 4.57
